# TEST_TARGET: SARS-CoV-2 Main Protease (SARS-CoV-2) (UniProt P0DTD1)
Response field class: string, computed from recorded IC50 by ranges LOW (below 2000 nM), MID (2000 nM to below 3000 nM), HIGH (3000 nM or more)

Example cases with answers are listed next.
{"columns": ["COMPOUND", "ANSWER_LABEL"],
 "data": [
  ["CC(=O)NCC1(C(=O)Nc2cncc3ccccc23)CCOc2ccc(Cl)cc21 (stereo not given)", "HIGH"],
  ["O=C(Cc1cc(Cl)cc(Nc2ncc(F)cc2Br)c1)Nc1cncc2ccccc12", "LOW"],
  ["CC(NC(=O)c1ccc2oc(=S)[nH]c2c1)c1nnc2ccccn12 (stereo not given)", "HIGH"]
]}

[in] Bin? Nc1nn(C(=O)Cc2cccc(Cl)c2)c2cccc(F)c12
[out] HIGH

[in] Another compound: N#CC1(CS(=O)(=O)N2Cc3ccc(Cl)cc3C3(CCN(c4cncc5ccc(OCCN6CCCC6)cc45)C3=O)C2)CC1 (stereo not given)
[out] LOW

[in] Another compound: CN(C)C(=O)CN1Cc2ccc(Cl)cc2C(C(=O)Nc2cncc3ccccc23)C1 (stereo not given)
[out] LOW

---

# EXPERIMENTAL_CONTEXT: rat; in vivo; iv; 0.5 mg/kg
Quick reference: half-life of the listed items.
Numeric only. Scale: min

[in] Param item = O=C(Nc1cncc2cc(CO)ccc12)C1CCOc2ccc(Cl)cc21 (configuration not stated) ; retrieve measured half-life.
[out] 27.7

[in] Another compound: O=C(Nc1cncc2ccccc12)C1CN(S(=O)(=O)CC2CNC2)Cc2ccc(Cl)cc21 (configuration not stated)
[out] 91.2

---

Lab note: log10 IC50 readings collected with UniProt:P0DTD1 for the following molecules.
Units before log transform: nM; reported quantity: IC50; transform: log10.

{"columns": ["MOLECULE", "log10 IC50"],
 "data": [
  ["O=C(Nn1nnc2ccccc21)C(Cc1cccc(Cl)c1)c1ccc(N2CCCCC2=O)cc1 (centres undefined)", 4.71]
]}

[in] Param item = N#CC(C(=O)Nc1cncc2ccccc12)c1ccc(Cl)c(Cl)c1 (centres undefined) ; retrieve measured log10 IC50.
[out] 2.90

[in] Another molecule: O=C(Cc1cc(Cl)cc(NCc2ccc3c(c2)OCO3)c1)Nc1cncc2ccccc12
[out] 3.40

[in] Another molecule: COC(=O)[C@H]1C[C@@H](NC(=O)C(c2cccnc2)N(C(=O)c2cocn2)c2ccc(C(C)(C)C)cc2)CN1C(=O)OC(C)(C)C (stereo in doubt)
[out] 3.73

[in] Another molecule: CCOC(=O)c1ccc(NC(=O)CC2SC(=O)N(c3ccccc3)C2=O)cc1 (centres undefined)
[out] 3.38

[in] Another molecule: Cc1cc(I)ccc1Nc1cc(Cl)cc(CC(=O)Nc2cncc3ccccc23)c1
[out] 3.39

---

# TEST_TARGET: SARS-CoV-2 Main Protease (SARS-CoV-2)
MEASUREMENT_KIND: IC50 (µM)
Numeric only. Scale: µM

{"columns": ["COMPOUND", "IC50 [µM]"],
 "data": [
  ["N#Cc1ncn(CC(=O)Nc2ccc(Br)cc2Cl)n1", 15.7],
  ["COC(=O)N1Cc2ccc(Cl)cc2C(C(=O)Nc2cncc3ccccc23)C1 (stereo not given)", 0.224],
  ["Cn1cncc1C(=O)N1Cc2ccc(Cl)cc2C(C(=O)Nc2cncc3ccccc23)C1 (stereo not given)", 0.224],
  ["COC(=O)C(C(=O)Nc1cnccc1C)c1cccc(Cl)c1 (stereo not given)", 23.7]
]}

Below: the item to evaluate.
[in] Param item = O=C(CC1(C(=O)Nc2cncc3ccccc23)CCOc2ccc(Cl)cc21)N1CCC2C1CCCN2CCO (stereo not given) ; retrieve measured IC50.
[out] 4.66

---

Quick reference: pIC50 of the listed items.
# TEST_TARGET: SARS-CoV-2 Main Protease (SARS-CoV-2) (UniProt P0DTD1)
Hey, just a heads up that pIC50 is the negative log base 10 of the concentration in molar.

{"columns": ["COMPOUND", "pIC50"],
 "data": [
  ["CN1CC(C#N)(CS(=O)(=O)N2Cc3ccc(Cl)cc3C(C(=O)Nc3cncc4ccccc34)C2)C1 (centres undefined)", 6.82],
  ["O=C(Cc1ccc(Cl)c(Cl)c1)Nc1cncc2ccncc12", 5.75],
  ["COC1(C(=O)Nc2cncc3ccncc23)CCOc2ccc(Cl)cc21 (centres undefined)", 6.08],
  ["N#CC1(CS(=O)(=O)N2Cc3ccc(Cl)cc3C3(CCN(c4cncc5ccc(OCCCN6CCCC6)cc45)C3=O)C2)CC1 (centres undefined)", 6.89],
  ["O=C(Nc1cncc2cc(CO)ccc12)C1CCOc2ccc(Cl)cc21 (centres undefined)", 5.85]
]}

Below: the item to evaluate.
[in] Param item = CC(=O)Nc1ccc(Nc2cc(Cl)cc(CC(=O)Nc3cncc4ccccc34)c2)c(C(F)(F)F)c1 ; retrieve measured pIC50.
[out] 5.68

---

Lab note: IC50 readings collected with SARS-CoV-2 Main Protease (SARS-CoV-2) (UniProt P0DTD1) for the following compounds.

{"columns": ["COMPOUND", "MEASUREMENT_KIND", "RESULT"],
 "data": [
  ["COc1ccc2c(NC(=O)C3CN(S(=O)(=O)CC4(C#N)CC4)Cc4ccc(Cl)cc43)cncc2c1 (centres undefined)", "IC50", "342 nM"],
  ["CC1(CS(=O)(=O)N2Cc3ccc(Cl)cc3C3(CCN(c4cncc5cc(S(C)(=O)=O)ccc45)C3=O)C2)CC1 (centres undefined)", "IC50", "155 nM"]
]}

[in] Quick check: IC50 on SARS-CoV-2 Main Protease (SARS-CoV-2) (UniProt P0DTD1), item COc1ccc2c(NC(=O)C3CCOc4ccc(Cl)cc43)noc2c1 (centres undefined) ?
[out] 61500 nM

[in] Another compound: COC(=O)/C=C/C(=O)N(C(=O)[C@@H]1CCOc2ccc(Cl)cc21)c1cncc2ccccc12 (stereo in doubt)
[out] 500 nM

---

# EXPERIMENTAL_CONTEXT: rat; in vivo; iv; 2.0 mg/kg
MEASUREMENT_KIND: AUC(0-inf) (ng·h/mL)
Numeric only. Scale: ng·h/mL

[in] Param item = O=C(Nc1cncc2ccccc12)C1CCS(=O)(=O)c2ccc(Cl)cc21 (stereo unspecified) ; retrieve measured AUC(0-inf).
[out] 2890

---

Lab note: IC50 readings collected with SARS-CoV-2 Main Protease (SARS-CoV-2) for the following compounds.
Numeric only. Scale: µM

[in] Param item = CC(C)n1nccc1C(=O)N1Cc2ccc(Cl)cc2C2(CCN(c3cncc4ccccc34)C2=O)C1 (stereo not given) ; retrieve measured IC50.
[out] 0.268

[in] Another compound: CS(=O)(=O)N1Cc2ccc(Cl)cc2C(C(=O)Nc2cncc3cccc(F)c23)C1 (stereo not given)
[out] 0.951

[in] Another compound: O=C(Cc1cc(Cl)cc(Nc2cc(Cl)c(F)cc2F)c1)Nc1cncc2ccccc12
[out] 1.74

[in] Another compound: OCCn1c(CSc2nc3ccccc3o2)nc2ccc(Cl)cc21
[out] 0.327

---

Lab note: pIC50 readings collected with SARS-CoV-2 Main Protease (SARS-CoV-2) (UniProt P0DTD1) for the following compounds.
Hey, just a heads up that pIC50 is the negative log base 10 of the concentration in molar.

{"columns": ["COMPOUND", "NUMERIC_VALUE"],
 "data": [
  ["COC(=O)CCSc1cc(Cl)ccc1N(C(=O)c1ccco1)C(C(=O)NCCc1cccc(F)c1)c1cccnc1 (centres undefined)", 4.78],
  ["O=C(CCl)N1CCN(Cc2cc(O)cc(Cl)c2)CC1", 4.89],
  ["O=C(NCCc1cccc(F)c1)C(c1cccnc1)N(C(=O)c1cocn1)c1cnn(-c2ccccc2)c1 (centres undefined)", 5.53],
  ["N#CC1(CS(=O)(=O)N2Cc3ccc(Cl)cc3C(C(=O)Nc3cncc4cc(Cl)ccc34)C2)CC1 (centres undefined)", 6.55]
]}

Below: the item to evaluate.
[in] Param item = N#CC1(CS(=O)(=O)N2Cc3ccc(Cl)cc3C3(CCN(c4cncc5ccccc45)C3=O)C2)CCS(=O)(=O)CC1 (centres undefined) ; retrieve measured pIC50.
[out] 6.68

---

# EXPERIMENTAL_CONTEXT: mdck
MEASUREMENT_KIND: Papp A→B (×10⁻⁶ cm/s)
Numeric only. Scale: ×10⁻⁶ cm/s

[in] Param item = O=C(Nc1cncc2ccccc12)C1CN(S(=O)(=O)CC2CNC2)Cc2ccc(Cl)cc21 (stereo unspecified) ; retrieve measured Papp A→B.
[out] 1.6

---

# TEST_TARGET: SARS-CoV-2 Main Protease (SARS-CoV-2)
pIC50: −log10 of the molar value.
Response field class: string, computed from recorded pIC50 by ranges low interval = under 5, middle interval = from 5 up to 6, high interval = 6 and over

{"columns": ["COMPOUND", "ANSWER_LABEL"],
 "data": [
  ["COc1ccc(NC(=O)[C@@H]2CN(C(=O)CCl)CCN2S(=O)(=O)c2ccsc2)cc1 (stereo in doubt)", "high interval"],
  ["O=C(NCCc1cccc(F)c1)C(c1cccnc1)N(C(=O)c1cocn1)c1cnc(C2CCC2)nc1 (stereo not drawn)", "low interval"],
  ["Cc1cc(Br)cc(Nc2cc(Cl)cc(CC(=O)Nc3cncc4ccccc34)c2)c1", "middle interval"],
  ["c1ccc(-c2cc(Sc3nnc(-c4cccs4)o3)n3ncnc3n2)cc1", "high interval"],
  ["COc1cncc(C(C(=O)NCCc2cccc(F)c2)N(C(=O)c2ccco2)c2ccc(C(C)(C)C)cc2)c1C (stereo not drawn)", "low interval"]
]}

Next compound, please.
[in] Bin? Cc1nnc(CNc2ccc3nnc(-c4ccccc4)n3n2)o1
[out] low interval
